# reported TGI; entries follow
Tested on: COLO 205 colon
assayMethodText: NCI tumour cell line growth inhibition, 48 h
Answer format: numeric, µM implied, no suffix.

>>> df
                                   compound  measurementlabel  endpointvalue
0  CC(=O)C1=C(C)N(C)C2(O)C=CC(=O)C3=C(O)c4ccccc4C(=O)C312 (stereo not given)               TGI             38

Incoming: Provide measured TGI on COLO 205 colon for Cc1ccc(C2=Nc3c(N)ncnc3NC(c3ccc4c(c3)OCO4)C2)cc1 (stereo not given) please.
Outgoing: 21.7

Incoming: Please indicate recorded TGI of `O=C1N[C@@H]2c3c(Br)sc(Br)c3C(=O)[C@@H]2O1` measured with COLO 205 colon.
Outgoing: 6.58

Incoming: Report TGI from COLO 205 colon testing of `C/C(=N\NC(=S)N1CC2CCC(CC2)C1)c1cccc(C)n1`
Outgoing: 11.1

Incoming: State TGI (COLO 205 colon) of `Cn1c2ccccc2c2c3[nH][nH]c(=O)c3c3c4ccccc4[nH]c3c21` .
Outgoing: 21

----------
System: DLD-1 colon
assayMethodText: NCI tumour cell line growth inhibition, 48 h
Each record here notes measured TGI.

molecule	testedSystem	measurementLabel	endpointValue
C[CH2][Ge]([CH2]C)([CH2]C)[O]C(=O)CCC(=O)[O][Ge]([CH2]C)([CH2]C)[CH2]C	DLD-1 colon	TGI	> 100 µM
Clc1ccc2nc(-c3ccccc3)nc(Cl)c2c1	DLD-1 colon	TGI	> 100 µM
CNS(=O)(=O)NN(C)S(=O)(=O)c1ccc2ccccc2c1	DLD-1 colon	TGI	> 100 µM
O=c1c(NO)c([N+](=O)[O-])cnn1-c1ccccc1	DLD-1 colon	TGI	10.2 µM
O=S(=O)([O-])[O-].[Cl-].[NH2-].[NH2-].[NH2-].[NH2-].[Ru+3].c1ccncc1	DLD-1 colon	TGI	> 100 µM
CC1C[C@]2(C[C@@H](C)C(=O)O2)O[C@@H]2CC3(C)[C@@H]4CCC5C(C)(C)OC(=O)C[C@H]6OO[C@]4(CC[C@]3(C)C12)CC56O (stereo not given in full)	DLD-1 colon	TGI	> 100 µM
COc1ccc(-c2cc(-c3cc(Cl)cc(Br)c3O)[nH]c(=O)n2)cc1	DLD-1 colon	TGI	38.4 µM
CCOC(=O)C1=C(C)N(NC(N)=O)C(C)(O)C12CCOC2=O (stereo not given)	DLD-1 colon	TGI	> 100 µM
NCCCCC(=O)c1cccnc1	DLD-1 colon	TGI	> 100 µM
CC(=O)C(CN(C)C)C(c1ccccc1)c1c(O)c2ccccc2oc1=O (stereo not given)	DLD-1 colon	TGI	> 100 µM

Incoming: Entry CCOC(=O)[C@H]1Nc2ccc([N+](=O)[O-])cc2C2c3ccccc3CC21 (stereo not given in full) needs its TGI filled in; supply it.
Outgoing: > 100 µM

----------
Test system: RXF 393 renal
assayMethodText: NCI tumour cell line growth inhibition, 48 h
measurementLabel: log10(TGI) (log10 of the value in µM)
# values: log10(TGI), units µM

Before answering, review these 5 worked examples.
In [3]: df
Out[3]:
                                   compound  endpointvalue
0  O/N=C(\CC(O)(C(F)(F)F)C(F)(F)F)c1cccc(Cl)c1           1.67
1  CCOC(=O)c1c(C)nc2c(c1N)CC(=O)N2CCc1ccccc1           1.18
2  CC(CNCCCNCCNCCCNCO)[N+](=O)[O-] (configuration not stated)           1.47
3       CCCCNC(=O)c1cc(NCc2cc(O)ccc2O)ccc1O           1.33
4           C/C(=N\N=C(\[Se])N(C)C)c1ccccn1           0.79

Incoming: Tell us which log10(TGI) value is on record for `NCCOc1ccccc1/C=C1\c2ccccc2-c2ccc([N+](=O)[O-])cc21`
Outgoing: 0.49

Incoming: Look up and report measured log10(TGI) for this entry: C=CC1(NS(=O)(=O)c2ccc(C)cc2)CCC(C(C)(C)C)CC1 (configuration not stated)
Outgoing: 1.74

Incoming: Using known records, supply log10(TGI) for `Cn1c2ccccc2c2c3[nH][nH]c(=O)c3c3c4ccccc4[nH]c3c21`
Outgoing: 0.55

Incoming: Report measured log10(TGI); entry is Cc1sc(C)c2c1C(=O)CC2N (configuration not stated)
Outgoing: 1.54

Incoming: Supply measured log10(TGI) of `Clc1ccc2nc(-c3ccccc3)nc(Cl)c2c1` in your reply.
Outgoing: 1.69

Incoming: Look up log10(TGI) of `O=C(Cc1nc2ncccc2[nH]c1=O)c1c[nH]c2ccccc12` and report it.
Outgoing: 1.59

The measured values listed here are drawn from PubChem BioAssay (NCI).
